Assay Method Text: Inhalation exposure: Compound A concentration in lung, plasma and BALF (Example 2)
Assay type: in vivo, BALB/c mice
Setup Conditions: male, BALB/c, mouse, BALF, inhaled; mice, 30 min inhalation, nominal aerosol 0.2 mg/L, 0.083 h; read-out: Compound A concentration BALF
Measured Endpoint: concentration at 0.083 h (ng/mL)
API: value field is a number in ng/mL; no unit string.

Lab note: Nc1nc(N)c2nc(-c3cccc(O)c3)c(-c3cccc(O)c3)nc2n1 [Compound A] gave concentration at 0.083 h of 3150

###

Assay Method Text: Inhalation exposure: Compound A concentration in lung, plasma and BALF (Example 2)
Type: in vivo, BALB/c mice
Setup Conditions: male, BALB/c, mouse, BALF, inhaled; mice, 30 min inhalation, nominal aerosol 0.07 mg/L, 8 h; read-out: Compound A concentration BALF
Measured Endpoint: concentration at 8 h (ng/mL)
Return type: number; implicit unit ng/mL.

// Nc1nc(N)c2nc(-c3cccc(O)c3)c(-c3cccc(O)c3)nc2n1 : concentration at 8 h value = 800

Cited source for all entries: patent US20110166149A1
